TGI values for the compounds below.
system: SK-MEL-2 melanoma; test: NCI tumour cell line growth inhibition, 48 h
ENDPOINT: TGI

COMPOUND	ENDPOINT_VALUE
O=S(=O)(NCCNc1nccc(-c2c(-c3ccc(F)c(O)c3)nc3sccn23)n1)c1ccc(F)cc1	12.9 µM
CN(C)CCNC(=O)c1ccc(NCCCN(C)CCCNc2ccc(C(=O)NCCN(C)C)c3[nH]c4ccccc4c(=O)c23)c2c(=O)c3ccccc3[nH]c12	0.262 µM
O=C(/C=C/c1ccccc1)CSc1ncn[nH]1	> 100 µM
COc1ccc(NC(=O)/C(=C/c2ccccc2)C(C)=O)cc1	28.6 µM
Cc1cc2/c(=C\c3ccc(N(C)C)cc3)c3ccccc3n2[n+]1C	2.08 µM
O=C1CC(c2ccccc2)C2(C(=O)NC(=S)NC2=O)C(c2ccccc2)C1 (stereo not given)	> 75 µM
CC(=O)Nc1ccc(C(=O)NN2C(=O)C(Cl)/C2=C/c2ccco2)cc1 (stereo not given)	> 100 µM
CC1=Nc2c(ccc3c2C(=O)c2ccccc2C3=O)NC(c2cccc3c2CCC3)C1 (stereo not given)	> 100 µM
COC(=O)CCC1=C(CC(=O)OC)C(C)(OC)N=C1NC(=O)OCc1ccccc1 (stereo not given)	> 100 µM
c1cc2c(cc1NC1=NCCO1)OCO2	> 100 µM
CCC1(N=[N+]=[N-])C(=O)c2ccccc2N(C)C1=O (stereo not given)	> 100 µM
CCCC(CCC(N)=O)(CCC(N)=O)[N+](=O)[O-]	> 100 µM
[N-]=[N+]=NC(c1cn(C2CC(O)C(CO)O2)c(=O)[nH]c1=O)C(Br)Br (stereo not given)	> 100 µM
CCOC(=O)C1=C(Nc2ccc(Cl)cc2Cl)OCC1=O	> 100 µM
COc1cccc(/C(C#N)=C/c2nc3c(N4CCOCC4)nc(Cl)nc3n2C)c1	2.81 µM
O=S(=O)(NC1=NCCN1C(=S)SN1CCn2c1nsc2=S)c1cccc2ccccc12	44.1 µM
Cc1ccc(/C=N/n2c(-c3ccc(C)cc3)n[nH]c2=O)cc1	> 100 µM
CCOC(=O)c1c(N=P(c2ccccc2)(c2ccccc2)c2ccccc2)nnc(-c2ccccc2)c1-c1ccccc1	> 100 µM
CCC[CH2][Sn]([Cl])([Cl])[CH2]CCC	1.54 µM
CS(=O)(=O)c1nc(-c2cc3c(c(S(C)(=O)=O)n2)CCCC3)cc2c1CCCCC2	> 100 µM
Cc1nc(C)c(N2CCN(S(=O)(=O)N(Cc3ccccc3)Cc3ccccc3)CC2)c(=O)[nH]1	> 100 µM
OC1(c2ccc(-c3ccccc3)cc2)c2ccccc2C2=NCCN21 (stereo not given)	24.9 µM
Cc1ccc(NC=O)c(-c2c(N)[nH]c(=S)[nH]c2=O)c1	> 100 µM
[N-]=[N+]=NC1OC(=O)C(Cl)=C1N=P(c1ccccc1)(c1ccccc1)c1ccccc1 (stereo not given)	> 10 µM
COC(=O)C1C(O)CCC2CN3CCc4c([nH]c5ccccc45)C3CC21 (stereo not given)	> 100 µM
COc1cc(F)c(F)c(Nc2ccc(I)cc2F)c1NS(=O)(=O)C1(C[C@H](O)CO)CC1	> 2.01 µM
CCOc1ccc2[nH]c3c(C)c4ccncc4c(C)c3c2c1	2.48 µM
Cn1c(C(=O)c2ccncc2)cc2ccccc21	> 100 µM
CC(NC(=O)NC(C)(C)C)NC(=O)C(N)CC(=O)O (stereo not given)	> 100 µM
C=C1C(=O)OC2C/C(C)=C/CC/C(C)=C/CCC3(COC(C)=O)OC3CC12 (stereo not given)	14.4 µM

Value source: PubChem BioAssay (NCI)
